- MEASUREMENT_NOTES: logP determination by HPLC (EEC Directive 79/831 Annex V. A8)
- ASSAY_SETUP: HPLC, gradient method, acetonitrile/0.1% aqueous phosphoric acid
Decision: log.P compared against 4; not below it gives 1, below it gives -1.

IN: Hi, just wondering whether Clc1nc2nc(Cl)c(-c3ccccc3Cl)c(NC3CCCCC3)n2n1 [Example 42] shows log.P of 4 or higher.
OUT: 1

IN: Hi, just wondering whether Fc1cc(F)c(-c2c(Cl)nc3nc(Br)nn3c2NC2CC2)c(F)c1 [Example 56] shows log.P of 4 or higher.
OUT: -1

IN: Hi, just wondering whether CCNc1c(-c2c(F)cc(F)cc2F)c(Cl)nc2nc(Br)nn12 [Example 51] shows log.P of 4 or higher.
OUT: -1

IN: Hi, just wondering whether Clc1nc2nc(Cl)c(-c3ccccc3Cl)c(NCC3CC3)n2n1 [Example 19] shows log.P of 4 or higher.
OUT: -1

IN: Hi, just wondering whether CC1CCN(c2c(-c3c(F)cc(F)cc3F)c(Cl)nc3nc(Cl)nn23)CC1 [Example 90] shows log.P of 4 or higher.
OUT: 1

IN: Hi, just wondering whether C=C(C)CNc1c(-c2ccc(F)cc2F)c(Cl)nc2nc(Cl)nn12 [Example 108] shows log.P of 4 or higher.
OUT: -1

IN: Hi, just wondering whether Fc1cccc(Cl)c1-c1c(Cl)nc2nc(Cl)nn2c1N1CCSCC1 [Example 131] shows log.P of 4 or higher.
OUT: -1

IN: Hi, just wondering whether CN(C)c1c(-c2ccccc2Cl)c(Cl)nc2nc(Cl)nn12 [Example 26] shows log.P of 4 or higher.
OUT: -1

IN: Hi, just wondering whether COc1nc2nc(Cl)c(-c3c(F)cc(F)cc3OC)c(NC(C)C(F)(F)F)n2n1 (centres unmarked) [Example 80] shows log.P of 4 or higher.
OUT: -1

IN: Hi, just wondering whether CCCN(CC1CCCO1)c1c(-c2ccc(F)cc2F)c(Cl)nc2nc(Cl)nn12 (centres unmarked) [Example 127] shows log.P of 4 or higher.
OUT: 1

IN: Hi, just wondering whether CC(C)CNc1c(-c2ccc(F)cc2F)c(Cl)nc2nc(Cl)nn12 [Example 101] shows log.P of 4 or higher.
OUT: -1

IN: Hi, just wondering whether COCCNc1c(-c2ccccc2Cl)c(Cl)nc2nc(Cl)nn12 [Example 35] shows log.P of 4 or higher.
OUT: -1

IN: Hi, just wondering whether CC(C)CN(N)c1c(-c2c(F)cc(F)cc2F)c(Cl)nc2nc(Cl)nn12 [Example 48] shows log.P of 4 or higher.
OUT: -1

IN: Hi, just wondering whether COCCNc1c(-c2ccc(F)cc2F)c(Cl)nc2nc(Cl)nn12 [Example 104] shows log.P of 4 or higher.
OUT: -1

IN: Hi, just wondering whether C[C@H](Nc1c(-c2c(F)cc(F)cc2F)c(Cl)nc2nc(Br)nn12)C(F)(F)F [Example 99] shows log.P of 4 or higher.
OUT: -1

IN: Hi, just wondering whether CCN(CC)c1c(-c2c(F)cc(F)cc2F)c(Cl)nc2nc(Cl)nn12 [Example 9] shows log.P of 4 or higher.
OUT: -1

IN: Hi, just wondering whether CC1CCCN(c2c(-c3c(F)cc(F)cc3F)c(Cl)nc3nc(Cl)nn23)C1 (centres unmarked) [Example 88] shows log.P of 4 or higher.
OUT: 1

IN: Hi, just wondering whether Fc1cc(F)c(-c2c(Cl)nc3nc(Br)nn3c2NCC2CC2)c(F)c1 [Example 62] shows log.P of 4 or higher.
OUT: -1

IN: Hi, just wondering whether CC(C)Nc1c(-c2ccccc2Cl)c(Cl)nc2nc(Br)nn12 [Example 45] shows log.P of 4 or higher.
OUT: -1

IN: Hi, just wondering whether Fc1ccc(-c2c(Cl)nc3nc(Cl)nn3c2NC2CCCC2)c(F)c1 [Example 103] shows log.P of 4 or higher.
OUT: -1

IN: Hi, just wondering whether CC1CN(c2c(-c3ccccc3Cl)c(Cl)nc3nc(Cl)nn23)CC(C)O1 (centres unmarked) [Example 28] shows log.P of 4 or higher.
OUT: -1

IN: Hi, just wondering whether Clc1nc2nc(Cl)c(-c3ccccc3Cl)c(N3CCCCC3)n2n1 [Example 32] shows log.P of 4 or higher.
OUT: 1

IN: Hi, just wondering whether Fc1cc(F)c(-c2c(Cl)nc3nc(Cl)nn3c2N2CCC(C(F)(F)F)CC2)c(F)c1 [Example 46] shows log.P of 4 or higher.
OUT: 1

IN: Hi, just wondering whether CC(C)NNc1c(-c2c(F)cc(F)cc2F)c(Cl)nc2nc(N(C)C)nn12 [Example 4] shows log.P of 4 or higher.
OUT: -1

IN: Hi, just wondering whether Fc1ccc(-c2c(Cl)nc3nc(Cl)nn3c2NCC2CC2)c(F)c1 [Example 107] shows log.P of 4 or higher.
OUT: -1

IN: Hi, just wondering whether CC1CN(c2c(-c3c(F)cc(F)cc3F)c(Cl)nc3nc(Br)nn23)CC(C)O1 (centres unmarked) [Example 50] shows log.P of 4 or higher.
OUT: -1

IN: Hi, just wondering whether CCC(C)Nc1c(-c2ccccc2Cl)c(Cl)nc2nc(Cl)nn12 (centres unmarked) [Example 70] shows log.P of 4 or higher.
OUT: -1

IN: Hi, just wondering whether C[C@H](Nc1c(-c2c(F)cccc2Cl)c(Cl)nc2nc(Cl)nn12)C(F)(F)F [Example 100] shows log.P of 4 or higher.
OUT: -1

IN: Hi, just wondering whether CCC(C)Nc1c(-c2ccc(F)cc2F)c(Cl)nc2nc(Cl)nn12 (centres unmarked) [Example 102] shows log.P of 4 or higher.
OUT: -1

IN: Hi, just wondering whether Fc1ccc(-c2c(Cl)nc3nc(Cl)nn3c2NC2CC2)c(F)c1 [Example 105] shows log.P of 4 or higher.
OUT: -1

IN: Hi, just wondering whether C#CCN(C)c1c(-c2ccc(F)cc2F)c(Cl)nc2nc(Cl)nn12 [Example 111] shows log.P of 4 or higher.
OUT: -1

IN: Hi, just wondering whether CC1CCCN(c2c(-c3ccccc3Cl)c(Cl)nc3nc(Cl)nn23)C1 (centres unmarked) [Example 92] shows log.P of 4 or higher.
OUT: 1

IN: Hi, just wondering whether Fc1cc(F)c(-c2c(Cl)nc3nc(Cl)nn3c2N2CCCC2)c(F)c1 [Example 8] shows log.P of 4 or higher.
OUT: -1
